Overview of recorded inhibition for various compounds
- Measurement target: Glucose transporter (Leishmania mexicana) (UniProt O61059)
- Experiment summary: ST_JUDE_LEISH: Cytotoxicity at 2uM final concentration against transgenic Leishmania Mexicana promastigotes LmGT2 that are glucose transport deficient and complemented with the L. Mexicana glucose transporter 2. Activity is measured by DNA content using SYBR green in vitro
- Format: functional
# do not omit the unit; it follows the number

Compound: CCCCC#Cc1cnc2nc(N)[nH]c(=O)c2n1
inhibition: 0.91%
--
Compound: O=C(Nc1cccc(-c2ccc(-c3nc4cc(C(F)(F)F)ccc4[nH]3)cc2)c1)c1ccncc1
inhibition: 5.09%
--
Compound: Cc1cc(N[C@@H](Cc2ccccc2)C(=O)NCCc2ccccc2)nc(NCCc2ccccc2)n1
inhibition: 4.38%
--
Compound: CC(=O)N(C)C1CCN(Cc2cccc(-c3ccc(-c4nc5cc(F)ccc5[nH]4)cc3)c2)C1 (stereo unspecified)
inhibition: 3.15%
--
Compound: CCCCN1CC[C@@H](CCC(O)c2ccnc3ccc(OCCC(C)C)cc23)[C@@H](CC)C1 (stereo partly specified)
inhibition: 3.24%

inhibition in this record for N#Cc1ccc2c(c1)CCN(CCC1CCC(NC(=O)c3cc4ccc(Cl)cc4[nH]3)CC1)C2 (stereo unspecified) : -0.76%

Oc1ccc(C2CNCCc3c2cc(O)c(OCc2ccccc2)c3Cl)cc1 (stereo unspecified) has a reported inhibition of 2.54%

Form: compound = O=c1cc(NCCCNCc2cc(Br)cs2)[nH]c2ccccc12 ; inhibition = 2.59%
